test: In vitro solubility experiment; format: physicochemical; details: organic solvent or mixture, thermodynamic from solid; Tetrahydrofuran, 0.5 h
OBSERVED_PROPERTY: solubility at 0.5 h

Qu. Give solubility at 0.5 h for the following molecule: Cc1cc2c(C(N)=O)c(N)n(-c3c(C)ccc(O)c3C)c2nc1C [RP-6306, reference compound]
Ans. 4520 µg/mL

* * *

assay: in vitro; details: dog, MDCK, Papp B-A Sample - 01
OBSERVED_PROPERTY: Papp B→A at 90 min, 5 µM (×10⁻⁶ cm/s)
I only need the number, in ×10⁻⁶ cm/s, no unit after it.

Qu. Look up Papp B→A at 90 min, 5 µM of C[C@H]1O[C@@H](O[C@H]2[C@@H](O)C[C@H](O[C@H]3[C@@H](O)C[C@H](O[C@H]4CC[C@@]5(C)[C@H](CC[C@@H]6[C@@H]5C[C@@H](O)[C@]5(C)[C@@H](C7=CC(=O)OC7)CC[C@]65O)C4)O[C@@H]3C)O[C@@H]2C)C[C@H](O)[C@@H]1O and report it.
Ans. 4.64

Qu. Given the compound Cc1cc2c(C(N)=O)c(N)n(-c3c(C)ccc(O)c3C)c2nc1C [RP-6306, reference compound] , write its reported Papp B→A at 90 min, 5 µM.
Ans. 38.5
